Hello, the source for this data is paper PMC7171677, in case you need it.

SYSTEM UNDER TEST: PfENT1 (Plasmodium falciparum, UniProt Q8IDM6)
Sequence (Q8IDM6 whole entry): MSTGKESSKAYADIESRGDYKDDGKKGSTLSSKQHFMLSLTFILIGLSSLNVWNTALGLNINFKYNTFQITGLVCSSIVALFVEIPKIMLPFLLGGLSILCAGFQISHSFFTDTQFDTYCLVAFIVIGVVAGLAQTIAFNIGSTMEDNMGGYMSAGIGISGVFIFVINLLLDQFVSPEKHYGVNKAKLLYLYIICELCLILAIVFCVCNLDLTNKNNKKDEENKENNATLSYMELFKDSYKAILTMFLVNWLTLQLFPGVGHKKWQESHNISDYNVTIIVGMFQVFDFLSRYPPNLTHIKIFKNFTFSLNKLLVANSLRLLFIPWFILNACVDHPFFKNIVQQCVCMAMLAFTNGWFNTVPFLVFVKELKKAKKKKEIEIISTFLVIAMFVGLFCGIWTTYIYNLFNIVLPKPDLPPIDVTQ
ASSAY REMARKS: [3H]adenosine uptake into PfENT1-expressing yeast
Format: cell-based
PROPERTY: IC50
Answer format: value, then unit.

What value of IC50 has been recorded for this entry: O=C(Nc1ccccc1C(=O)NC1CC1)c1cccc(N2CCCC2=O)c1 [GSK-3] 0.03 µM

Fill in the blank: the reported IC50 of COc1ccc(-c2nc(C(=O)Nc3cccc(-c4nnc5n4CCCCC5)c3)cs2)cc1OC [GSK-1] is ____. 0.12 µM

Recorded IC50 of CC(=O)Nc1nc(-c2c(F)cccc2F)cs1 [GSK-5] , please. 2.59 µM

Item CCc1nnc(NC(=O)c2nc(-c3ccc(Cl)cc3)n3c2CCCCC3)s1 [GSK-2] has what recorded IC50? 0.03 µM

Bench note: what IC50 did CCn1cnnc1C1CCN(C(=O)c2cn3ccc(C)cc3n2)CC1 [GSK-6] show? 3.98 µM

Given the entry Cc1oc(-c2ccccc2)nc1C(=O)NCCN1CCCCCC1=O [GSK-4] , report its measured IC50. 0.02 µM
